In this section, each of the sequences is paired with its reported folding stability dG unfold.
- Protocol text: folding stability dG unfold (combined trypsin and chymotrypsin); higher = more stable
Provide only the numeric value, understood in kcal/mol.

# annotated cases, reported folding stability dG unfold shown
{"columns": ["Seq text", "Readout type", "Observed result"],
 "data": [
  ["SAGGSAEITEIEIEEEGGRLRVRATVTNENGETFEFEAEIELPPPPPPEEVTLERDPETDEWKEVTSAGGSA [r15_335_TrROS_Hall]", "folding stability dG unfold", 2.22],
  ["SMATVLSVSENPENPDTLSFEVELPDSPMSVTVPKDPKTGKYTMTVETPEATTTRDFTSLEDALAYIERASA [r9_366_JUSTAS]", "folding stability dG unfold", 0.795],
  ["SGFEVERVEVEADLDKPTVARFLLVNPDGQPIVALDPVVRLGEEALVLSVYRNPVDGELRVTARRIRLDGSA [r9_269_TrMRF]", "folding stability dG unfold", 1.21],
  ["SAGGSPHVSTDAADPELAARLLREAFGTDEVPLVRRDPTTGALLAFLPATGRLVWTDRTTVRVEPSSAGGSA [r2_205_TrMRF]", "folding stability dG unfold", 0.13],
  ["SAGGSAGGEVKTIEIEIEITDEDGRKYRIKMEAEVLPNGEIIIRMEIEDEETNETYEMTIVLKPSAGGSAGG [r6_726_TrROS_Hall]", "folding stability dG unfold", 4.35],
  ["SAGPEIKIEPRSYDPKKGIFTYSAYVLDYKDGKKEREIEVGTWRYYGPDGTVEPISEEDILQKAKDLLSSAG [r5_909_TrMRF]", "folding stability dG unfold", 0.371],
  ["SAGGSAGGSAGGMVVEVVELPDGQLVVRAGPVGYAVVFNGEEVTLFELPPDAEVELLPFSAGGSAGGSAGGS [r10_637_TrMRF]", "folding stability dG unfold", 1.36],
  ["SAGGSPVYKVEIRMTIVDKNGTVKSIVNLELTFKTEEEIEKFLESIPKETVVEIEIEKRTVEPPEKLSAGGS [r16_677_JUSTAS]", "folding stability dG unfold", 1.41],
  ["SAPQIVEVKEYDPVSKTYTILAETPEGPLTVPVPAGGDTTVEEAIEQVKEYFEKTLPPGVELEIEKILLSAG [r14_422_JUSTAS]", "folding stability dG unfold", 0.418],
  ["SAGGSAEPPEVTVEVLSVEPTPDGYLVVERVVTTPDGVLVYRTVFRPPDGKPVGTDWALFPNPDALSAGGSA [r15_716_TrMRF]", "folding stability dG unfold", 2.95]
]}

Task: Endpoint output: folding stability dG unfold of SMKITIVNKNGEKKEIEVTAKDGKKYKITVFKDKELVIKVEETTPDGKKKPVKVIKAKSLEEALEALKKASA [r9_942_TrROS_Hall] . Value?
Output: 2.38

Task: Fill in the blank: the reported folding stability dG unfold of SENKPVTVLVNVTKNEDGTYTARVFVFDENGKLLAEEEVEAPLEKAVELVEALKKAYPNAKVVAVFTEGLSA [r9_374_TrMRF] is ____.
Output: 4.67
